Source of measurements: patent US4963563A

Structures can show the parent of a compound that is named as a salt.
Entries with their measured Ki, system UniProt P15823:
Value Type: Ki (µM)

> print(dat)
                                   compound  obs.value
1  COc1ccc2c(c1)CCN(CCCc1ccco1)C2 [Example 6, hydrochloride]      0.154
2  COc1ccc2c(c1)CCN(CCCc1cccc(F)c1)C2 [Example 5, hydrochloride]      0.206
3  Cc1ccc2c(c1)CCN(CCCc1ccccc1)C2 [Example 13, Hydrochloride]      0.114
4  COc1ccc2c(c1)CCN(CCCc1ccccc1)C2 [Example 7, hydrochloride]      0.217
5  COc1ccc2c(c1)CCN(CCCc1cccs1)C2.Cl [Example 2, hydrochloride]       0.15
6  COc1cccc(CCCN2CCc3cc(OC)ccc3C2)c1 [Example 8, hydrochloride]      0.174
